// Poly [ADP-ribose] polymerase 2 (Homo sapiens) IC50 records
Write down the numeric answer in nM and omit the unit.

Item: "C[C@@H]1CN(Cc2ccc(-c3[nH]c4cc(F)cc5c4c3CCNC5=O)cc2)CCN1" Test system: Poly [ADP-ribose] polymerase 2 (Homo sapiens) Read-out: IC50 Value: ?
2.91

Give recorded IC50 with Poly [ADP-ribose] polymerase 2 (Homo sapiens) for the following compound: "CC(C)(C)OC(=O)NC1CCN(Cc2ccc(-c3[nH]c4cc(F)cc5c4c3CCNC5=O)cc2)CC1"
Sequence (Q9UGN5 whole entry): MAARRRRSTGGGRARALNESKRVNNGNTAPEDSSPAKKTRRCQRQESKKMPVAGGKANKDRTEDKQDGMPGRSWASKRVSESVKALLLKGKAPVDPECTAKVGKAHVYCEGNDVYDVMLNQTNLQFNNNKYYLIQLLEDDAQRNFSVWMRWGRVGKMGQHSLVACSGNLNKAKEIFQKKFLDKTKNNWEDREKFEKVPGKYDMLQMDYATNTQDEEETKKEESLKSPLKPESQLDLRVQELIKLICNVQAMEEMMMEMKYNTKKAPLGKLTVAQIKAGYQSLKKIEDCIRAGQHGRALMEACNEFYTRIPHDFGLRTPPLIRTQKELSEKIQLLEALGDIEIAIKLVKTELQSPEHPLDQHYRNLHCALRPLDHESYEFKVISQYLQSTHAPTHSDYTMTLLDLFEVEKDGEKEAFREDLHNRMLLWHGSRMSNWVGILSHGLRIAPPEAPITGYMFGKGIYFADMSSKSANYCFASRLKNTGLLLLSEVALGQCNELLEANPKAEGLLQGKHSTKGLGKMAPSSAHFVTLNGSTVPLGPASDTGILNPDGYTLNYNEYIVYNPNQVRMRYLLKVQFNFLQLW
8.04

Field: IC50 (Poly [ADP-ribose] polymerase 2 (Homo sapiens)). Entry: "O=C1NCCc2c(-c3ccc(CN4CCN(CCO)CC4)cc3)[nH]c3cc(F)cc1c23"
6.68

Value wanted: IC50 (Poly [ADP-ribose] polymerase 2 (Homo sapiens)) of entry "NC1CCN(Cc2cccc(-c3[nH]c4cc(F)cc5c4c3CCNC5=O)c2)CC1"
61.9

Origin of the recorded values: ChEMBL document CHEMBL5131383
